- Test system: Pichia kudriavzevii
- test.name: Antifungal activity against Candida krusei ATCC 6258 after 48 hrs by twofold serial dilution technique
- Format: functional
- measurement.parameters: ATCC 6258, 48 h
Label key: met means MIC under 100 mg/L; not met means MIC of 100 mg/L or more.

O=C(Nc1ccc2oc(-c3ccccc3)nc2c1)c1cc2ccccc2o1 : met
Cc1ccc(Cc2nc3cc(NC(=O)c4cc5ccccc5o4)ccc3o2)cc1 : not met
O=C(Nc1ccc2oc(-c3ccc(F)cc3)nc2c1)c1cc2ccccc2o1 : not met
OC(Cn1cncn1)(Cn1cncn1)c1ccc(F)cc1F : met
O=C(Nc1ccc2oc(-c3ccccc3Br)nc2c1)c1cc2ccccc2o1 : not met
CCc1ccc(-c2nc3cc(NC(=O)c4cc5ccccc5o4)ccc3o2)cc1 : not met
O=C(Nc1ccc2oc(Cc3ccc(Br)cc3)nc2c1)c1cc2ccccc2o1 : met
O=C(Nc1ccc2oc(Cc3ccc(Cl)cc3)nc2c1)c1cc2ccccc2o1 : not met
C[C@@H]1[C@H](O)[C@@H](C)/C=C/C=C/C=C/C=C/C=C/C=C/C=C/[C@H](O[C@@H]2O[C@H](C)[C@@H](O)[C@H](N)[C@@H]2O)C[C@@H]2O[C@](O)(C[C@@H](O)C[C@@H](O)[C@H](O)CC[C@@H](O)C[C@@H](O)CC(=O)O[C@H]1C)C[C@H](O)[C@H]2C(=O)O : met
O=C(Nc1ccc2oc(Cc3ccc(F)cc3)nc2c1)c1cc2ccccc2o1 : not met
CC(C)(C)c1ccc(-c2nc3cc(NC(=O)c4cc5ccccc5o4)ccc3o2)cc1 : not met
O=C(Nc1ccc2oc(Cc3ccccc3)nc2c1)c1cc2ccccc2o1 : met

----------
MIC overview
- Test system: Candida albicans
- test.name: Antifungal activity against biofilm-positive Candida albicans isolate after 48 hrs by twofold serial dilution technique
- Type: functional
attribute.measured: MIC (µg/mL)

CC(C)(C)c1ccc(-c2nc3cc(NC(=O)c4cc5ccccc5o4)ccc3o2)cc1 : 62.5
OC(Cn1cncn1)(Cn1cncn1)c1ccc(F)cc1F : 0.48
C[C@@H]1[C@H](O)[C@@H](C)/C=C/C=C/C=C/C=C/C=C/C=C/C=C/[C@H](O[C@@H]2O[C@H](C)[C@@H](O)[C@H](N)[C@@H]2O)C[C@@H]2O[C@](O)(C[C@@H](O)C[C@@H](O)[C@H](O)CC[C@@H](O)C[C@@H](O)CC(=O)O[C@H]1C)C[C@H](O)[C@H]2C(=O)O : 0.24
O=C(Nc1ccc2oc(Cc3ccc(F)cc3)nc2c1)c1cc2ccccc2o1 : 62.5
O=C(Nc1ccc2oc(Cc3ccc(Cl)cc3)nc2c1)c1cc2ccccc2o1 : 62.5
Cc1ccc(Cc2nc3cc(NC(=O)c4cc5ccccc5o4)ccc3o2)cc1 : 62.5
O=C(Nc1ccc2oc(-c3ccccc3)nc2c1)c1cc2ccccc2o1 : 62.5
O=C(Nc1ccc2oc(Cc3ccc(Br)cc3)nc2c1)c1cc2ccccc2o1 : 62.5
CCc1ccc(-c2nc3cc(NC(=O)c4cc5ccccc5o4)ccc3o2)cc1 : 62.5
O=C(Nc1ccc2oc(-c3ccc(F)cc3)nc2c1)c1cc2ccccc2o1 : 62.5
O=C(Nc1ccc2oc(Cc3ccccc3)nc2c1)c1cc2ccccc2o1 : 31.2
O=C(Nc1ccc2oc(-c3ccccc3Br)nc2c1)c1cc2ccccc2o1 : 62.5

----------
Reported MIC values for the following compounds.
- System: Pseudomonas aeruginosa
- test.name: Antibacterial activity against Pseudomonas aeruginosa […] after 24 hrs by twofold serial dilution technique
- Type: functional
attribute.measured: MIC (µg/mL)

O=C(Nc1ccc2oc(-c3ccccc3)nc2c1)c1cc2ccccc2o1 : 62.5
Cc1ccc(Cc2nc3cc(NC(=O)c4cc5ccccc5o4)ccc3o2)cc1 : 62.5
CC(C)(C)c1ccc(-c2nc3cc(NC(=O)c4cc5ccccc5o4)ccc3o2)cc1 : 62.5
CCc1ccc(-c2nc3cc(NC(=O)c4cc5ccccc5o4)ccc3o2)cc1 : 62.5
O=C(Nc1ccc2oc(Cc3ccc(F)cc3)nc2c1)c1cc2ccccc2o1 : 62.5
O=C(Nc1ccc2oc(-c3ccc(F)cc3)nc2c1)c1cc2ccccc2o1 : 31.2

----------
- Tested on: Candida albicans
- test.name: Antifungal activity against Candida albicans ATCC 10231 after 48 hrs by twofold serial dilution technique
- Assay type: functional
- measurement.parameters: ATCC 10231, 48 h
attribute.measured: MIC (µg/mL)

O=C(Nc1ccc2oc(Cc3ccc(Cl)cc3)nc2c1)c1cc2ccccc2o1 : 62.5
OC(Cn1cncn1)(Cn1cncn1)c1ccc(F)cc1F : 1.9
O=C(Nc1ccc2oc(Cc3ccc(Br)cc3)nc2c1)c1cc2ccccc2o1 : 62.5
Cc1ccc(Cc2nc3cc(NC(=O)c4cc5ccccc5o4)ccc3o2)cc1 : 62.5
O=C(Nc1ccc2oc(-c3ccccc3Br)nc2c1)c1cc2ccccc2o1 : 62.5
C[C@@H]1[C@H](O)[C@@H](C)/C=C/C=C/C=C/C=C/C=C/C=C/C=C/[C@H](O[C@@H]2O[C@H](C)[C@@H](O)[C@H](N)[C@@H]2O)C[C@@H]2O[C@](O)(C[C@@H](O)C[C@@H](O)[C@H](O)CC[C@@H](O)C[C@@H](O)CC(=O)O[C@H]1C)C[C@H](O)[C@H]2C(=O)O : 0.48
O=C(Nc1ccc2oc(-c3ccc(F)cc3)nc2c1)c1cc2ccccc2o1 : 62.5
O=C(Nc1ccc2oc(-c3ccccc3)nc2c1)c1cc2ccccc2o1 : 62.5
O=C(Nc1ccc2oc(Cc3ccccc3)nc2c1)c1cc2ccccc2o1 : 62.5
CCc1ccc(-c2nc3cc(NC(=O)c4cc5ccccc5o4)ccc3o2)cc1 : 62.5
O=C(Nc1ccc2oc(Cc3ccc(F)cc3)nc2c1)c1cc2ccccc2o1 : 62.5
CC(C)(C)c1ccc(-c2nc3cc(NC(=O)c4cc5ccccc5o4)ccc3o2)cc1 : 62.5
